Origin of the recorded values: patent US20150086555A1

- target of assay: recombinant soluble homotrimeric HA of A/Netherlands/219/03 (H7N7) (Influenza A virus A/Netherlands/219/03(H7N7))
- procedure summary: HA microarray, BCC supernatant
- details: remark: other sources report otherwise
Parameter Trimeric HA Binding: RLU: see the listing below.
readout type: Trimeric HA Binding: RLU

binder	readout type	measured result
TCN-526 (5084_C17) (antibody, V domains shown) VH: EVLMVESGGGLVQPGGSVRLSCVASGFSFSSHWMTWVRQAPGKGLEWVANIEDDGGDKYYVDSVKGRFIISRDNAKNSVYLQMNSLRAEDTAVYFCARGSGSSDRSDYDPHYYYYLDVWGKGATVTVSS VL: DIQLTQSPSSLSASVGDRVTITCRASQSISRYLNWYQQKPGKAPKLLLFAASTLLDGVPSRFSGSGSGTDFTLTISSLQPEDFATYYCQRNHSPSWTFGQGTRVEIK	Trimeric HA Binding: RLU	1340 RLU
TCN-532 (5262_H18) (antibody, V domains shown) VH: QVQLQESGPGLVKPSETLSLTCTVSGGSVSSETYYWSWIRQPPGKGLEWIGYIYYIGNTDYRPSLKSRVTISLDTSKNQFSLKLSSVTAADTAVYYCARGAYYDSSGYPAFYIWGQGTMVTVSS VL: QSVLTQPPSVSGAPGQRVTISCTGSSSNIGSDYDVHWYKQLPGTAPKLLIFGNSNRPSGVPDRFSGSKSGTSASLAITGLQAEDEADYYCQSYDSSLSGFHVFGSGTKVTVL	Trimeric HA Binding: RLU	327 RLU
